System: Salmonella enterica typhimurium
TEST SUMMARY: growth AUC normalised to DMSO control (fraction of control); higher = less growth inhibition, active = hit call of the paper;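 active = AUC significantly below DMSO controls by Student t-fit with adjusted P under 0.01; inactive = not significantly reduced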
RUN PARAMETERS: 20 µM
Counter-ions that a name gives are not always drawn.
Entry note: the call must match one of active, inactive

For CC(=O)N(CC(O)CN(C(C)=O)c1c(I)c(C(=O)NCC(O)CO)c(I)c(C(=O)NCC(O)CO)c1I)c1c(I)c(C(=O)NCC(O)CO)c(I)c(C(=O)NCC(O)CO)c1I (centres undefined) , what call appears in the results of this test?
inactive

For CO/N=C(\C(=O)N[C@@H]1C(=O)N2C(C(=O)O)=C(C[N+]3(C)CCCC3)CS[C@H]12)c1csc(N)n1 [Cefepime hydrochloride] , what call appears in the results of this test?
active

For `COc1c2occc2c(OC)c2c(=O)cc(C)oc12` , what call appears in the results of this test?
inactive

For CCCCc1cc2ccccc2c(OCCN(C)C)n1 [Dimethisoquin hydrochloride] , what call appears in the results of this test?
inactive
